assay overview: PAMPA test (skin permeability model)
experimental parameters: 70% silicone oil-30% IPM membrane, 7 h incubation, 100 μM in 5% DMSO phosphate buffer pH 7, triplicate mean
Listed here are compounds together with their documented permeation parameter CA(t)/CD(0).

| compound | experimental readout | test result |
| --- | --- | --- |
| COC(C)C(=O)OCC(=O)[C@@]12OC(C)(C)O[C@@H]1C[C@H]1[C@@H]3C[C@H](F)C4=CC(=O)C=C[C@]4(C)[C@@]3(F)[C@@H](O)C[C@@]12C (some centres unmarked) | permeation parameter CA(t)/CD(0) | 23.1 ± 1.4% |
| CCOC(CC)C(=O)OCC(=O)C12OC(C)(C)OC1CC1C3CC(F)C4=CC(=O)C=CC4(C)C3(F)C(O)CC12C (centres unmarked) | permeation parameter CA(t)/CD(0) | 7.2 ± 0.9% |
| CCC(OC)C(=O)OCC(=O)C1(O)C(C)CC2C3CCC4=CC(=O)C=CC4(C)C3(F)C(O)CC21C (centres unmarked) [DEX-21-MB, dexamethasone 21-(2′-methoxybutyrate)] | permeation parameter CA(t)/CD(0) | 37.4 ± 1.5% |
| COC(C)C(=O)OCC(=O)C12OC(C)(C)OC1CC1C3CCC4=CC(=O)C=CC4(C)C3(F)C(O)CC12C (centres unmarked) | permeation parameter CA(t)/CD(0) | 38.1 ± 1.6% |
| C[C@@H]1C[C@H]2[C@@H]3CCC4=CC(=O)C=C[C@]4(C)[C@@]3(F)[C@@H](O)C[C@]2(C)[C@@]1(O)C(=O)CO [DEX, dexamethasone, reference compound] | permeation parameter CA(t)/CD(0) | 1.3 ± 0.8% |
| CCOC(C)C(=O)OCC(=O)C1(O)C(C)CC2C3CCC4=CC(=O)C=CC4(C)C3(F)C(O)CC21C (centres unmarked) [DEX-21-EP, dexamethasone 21-(2′-ethoxypropionate)] | permeation parameter CA(t)/CD(0) | 31.6 ± 0.6% |
| CC(Oc1ccccc1)C(=O)OCC(=O)C12OC(C)(C)OC1CC1C3CC(F)C4=CC(=O)C=CC4(C)C3(F)C(O)CC12C (centres unmarked) | permeation parameter CA(t)/CD(0) | 1.3 ± 0.6% |

Now examine the next entry.
Exercise: Given the entry CCOC(C)C(=O)OCC(=O)C12OC(C)(C)OC1CC1C3CCC4=CC(=O)C=CC4(C)C3(F)C(O)CC12C (centres unmarked) , report its measured permeation parameter CA(t)/CD(0).
Key: 23.0 ± 1.8%
